target_or_test_system: serotonin transporter (Rattus norvegicus, UniProt P31652)
Sequence (P31652 whole entry): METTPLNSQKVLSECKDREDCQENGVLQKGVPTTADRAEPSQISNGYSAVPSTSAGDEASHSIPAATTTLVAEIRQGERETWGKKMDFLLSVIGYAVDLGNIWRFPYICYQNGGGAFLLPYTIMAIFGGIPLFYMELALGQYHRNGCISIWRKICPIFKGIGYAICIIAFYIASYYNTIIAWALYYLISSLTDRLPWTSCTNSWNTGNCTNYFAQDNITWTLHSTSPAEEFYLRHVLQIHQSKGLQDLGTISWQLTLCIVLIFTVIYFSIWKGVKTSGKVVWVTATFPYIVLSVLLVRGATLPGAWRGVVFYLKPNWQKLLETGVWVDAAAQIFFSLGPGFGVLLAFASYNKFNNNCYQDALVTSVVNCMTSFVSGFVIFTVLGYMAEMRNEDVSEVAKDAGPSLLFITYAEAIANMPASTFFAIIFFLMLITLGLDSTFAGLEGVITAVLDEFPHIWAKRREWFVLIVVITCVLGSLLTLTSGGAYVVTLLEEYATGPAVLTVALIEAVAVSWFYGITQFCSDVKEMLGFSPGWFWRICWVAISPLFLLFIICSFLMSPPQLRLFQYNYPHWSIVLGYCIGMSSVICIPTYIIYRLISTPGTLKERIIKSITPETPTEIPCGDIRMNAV
Labelling: Ki reported below 600 pM becomes T; at or above becomes F.

Recorded results for 5 molecules are shown here.
Cc1ccc2c3c(ccc2n1)OCC(CNC1CCC(c2c[nH]c4ccc(F)cc24)C1)O3 (stereo not drawn) [Example 4]: F
Cc1ccc2c3c(ccc2n1)OC[C@H](CN[C@H]1CC[C@@H](c2c[nH]c4ccccc24)C1)O3 (mixture of isomers) [Example 1]: F
Cc1ccc2c3c(ccc2n1)OCC(CNC1CCC(c2c[nH]c4ccc(F)cc24)C1)O3 (single isomer, unassigned) [Example 3-Isomer B]: T
Cc1nc2ccc3c(c2o1)O[C@@H](CN[C@H]1CC[C@@H](c2c[nH]c4ccc(F)cc24)C1)CO3 (mixture of isomers) [Example 11]: F
Cc1ccc2c3c(ccc2n1)OC[C@H](CN[C@@H]1CC[C@@H](c2c[nH]c4ccc(F)cc24)C1)O3 (single isomer, unassigned) [Example 4-Isomer B]: F

Input line: Ki strictly < 600 pM for this molecule? Cc1ccc2c3c(ccc2n1)OCC(CNC1CCC(c2c[nH]c4ccccc24)C1)O3 (stereo not drawn) [Example 2]
Output line: F

Source: patent US6911445B2
